test system: phosphodiesterase; test: Inhibition of phosphodiesterase isolated from rat brain tissue (radioisotopic technique, tritium-labelled c-AMP); type: biochemical; conditions: 1 × 10^-4 moles/lit.; 20 minutes incubation; % of control
Structures can show the parent of a compound that is named as a salt.
reportedEndpoint: Inhibition (%) obtained by 1 × 10^-4 moles/lit. concentrations of the test compounds

• CC[C@@]12C=C(COC(C)=O)n3c4c(c5ccc(OC)cc53)CCN(CCC1)[C@H]42 [Tartrate salt of apovincinol-acetate] = 62.3
• CC[C@@]12C=C(C(N)=O)n3c4c(c5ccccc53)CCN(CCC1)[C@H]42 [Apovincaminic acid amide] = 76.9
• CC[C@@]12C=C(C(=O)NN)n3c4c(c5ccccc53)CCN(CCC1)[C@H]42 [Apovincaminic acid-hydrazide, apovincaminic acid hydrazide] = 57.0
• CCOC(=O)C1=C[C@]2(CC)CCCN3CCc4c(n1c1cc(OC)ccc41)[C@@H]32 [Apovincinic acid ethyl ester tartrate] = 58.6
• CC[C@@]12C=C(C(=O)OC)n3c4c(c5ccc(OC)cc53)CCN(CCC1)[C@H]42 [Apovincine-tartrate] = 81.6
• CC[C@@]12C=C(C(=O)OC)n3c4c(c5ccccc53)CCN(CCC1)[C@H]42 = 54.8
• CC[C@@]12C=C(C(=O)OC)n3c4c(c5ccc(OC)cc53)CCN(CCC1)[C@H]42 [Apovincine-KHSO4] = 71.8
• COc1ccc(Cc2nccc3cc(OC)c(OC)cc23)cc1OC [Papaverine, reference compound] = 56.4
